Where do these numbers come from? They come from ChEMBL document CHEMBL4725355.

Assay: Clearance in dog at 0.1 mg/kg, iv by LC-MS/MS analysis
Type: ADME, organism-based, Canis lupus familiaris
Conditions: in vivo
propertyMeasured: clearance (mL/min/kg)
Give bare numbers, in mL/min/kg.

Bench note: what clearance did Cn1c(=O)n(CC(=O)N2CCC2)c2cc(-c3ccc(C(F)(F)F)s3)cnc21 show?
17

---

Experiment: Tmax in Sprague-Dawley rat at 125 mg/kg, po administered via gavage after 24 hrs using HPMC formulation by LC-MS/MS analysis
Format: ADME, organism-based
Settings: in vivo
propertyMeasured: Tmax
Answer by giving the amount and then stating its unit.

Bench note: what Tmax did Cn1c(=O)n(CC(=O)N2CCC2)c2cc(-c3ccc(C(F)(F)F)s3)cnc21 show?
2.7 h
